Biological target: T1, Human CD137 ECD (human)
T1 construct: also called 4-1BB
T1 sequence (chain, as listed by the source limits assumed): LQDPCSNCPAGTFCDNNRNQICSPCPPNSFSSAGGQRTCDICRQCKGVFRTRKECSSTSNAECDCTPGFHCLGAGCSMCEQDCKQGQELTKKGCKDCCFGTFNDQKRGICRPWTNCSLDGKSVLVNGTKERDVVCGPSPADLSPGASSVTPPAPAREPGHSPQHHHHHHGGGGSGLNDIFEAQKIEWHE
Assay: single mutant vs template dBBDu183H
Record true whenever fold change of affinity is at 0.7 fold or higher; record false when lower.

Reference set (2 entries):
H183/L072 VH N31S (antibody, name in Kabat numbering, V domains shown) VH: QVQLVESGGGLVQPGRSLRLSCAASGFTFSSAWMHWVRQAPGKGLEWVAQIKDKGNAYAAYYAPSVKGRFTISRDDSKNSIYLQMNSLKTEDTAVYYCHYVHYASASTVLPAFGVDAWGQGTTVTVSS VL: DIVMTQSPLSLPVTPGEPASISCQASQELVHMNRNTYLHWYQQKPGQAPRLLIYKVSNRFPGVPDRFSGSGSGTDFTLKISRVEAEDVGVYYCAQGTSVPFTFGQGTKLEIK | false
H183/L072 VH N31T (antibody, name in Kabat numbering, V domains shown) VH: QVQLVESGGGLVQPGRSLRLSCAASGFTFSTAWMHWVRQAPGKGLEWVAQIKDKGNAYAAYYAPSVKGRFTISRDDSKNSIYLQMNSLKTEDTAVYYCHYVHYASASTVLPAFGVDAWGQGTTVTVSS VL: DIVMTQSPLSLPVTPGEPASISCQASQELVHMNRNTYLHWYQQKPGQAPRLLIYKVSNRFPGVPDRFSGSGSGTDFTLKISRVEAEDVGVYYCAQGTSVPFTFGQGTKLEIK | false

Prompt: Please check the record H183/L072 VH A60H (antibody, name in Kabat numbering, V domains shown) VH: QVQLVESGGGLVQPGRSLRLSCAASGFTFSNAWMHWVRQAPGKGLEWVAQIKDKGNAYAAYYHPSVKGRFTISRDDSKNSIYLQMNSLKTEDTAVYYCHYVHYASASTVLPAFGVDAWGQGTTVTVSS VL: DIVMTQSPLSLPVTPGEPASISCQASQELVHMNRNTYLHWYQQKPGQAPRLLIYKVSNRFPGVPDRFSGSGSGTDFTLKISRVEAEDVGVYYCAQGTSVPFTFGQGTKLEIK and state if its fold change of affinity is at or above 0.7 fold.
Completion: true

Prompt: Please check the record H183/L072 VH T28K (antibody, name in Kabat numbering, V domains shown) VH: QVQLVESGGGLVQPGRSLRLSCAASGFKFSNAWMHWVRQAPGKGLEWVAQIKDKGNAYAAYYAPSVKGRFTISRDDSKNSIYLQMNSLKTEDTAVYYCHYVHYASASTVLPAFGVDAWGQGTTVTVSS VL: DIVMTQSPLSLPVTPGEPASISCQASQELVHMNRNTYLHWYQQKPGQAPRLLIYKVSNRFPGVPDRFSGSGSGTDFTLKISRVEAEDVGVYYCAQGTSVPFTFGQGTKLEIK and state if its fold change of affinity is at or above 0.7 fold.
Completion: true
